target: Matrix metalloproteinase-9 (Rattus norvegicus, UniProt P50282)
Sequence (P50282 whole entry): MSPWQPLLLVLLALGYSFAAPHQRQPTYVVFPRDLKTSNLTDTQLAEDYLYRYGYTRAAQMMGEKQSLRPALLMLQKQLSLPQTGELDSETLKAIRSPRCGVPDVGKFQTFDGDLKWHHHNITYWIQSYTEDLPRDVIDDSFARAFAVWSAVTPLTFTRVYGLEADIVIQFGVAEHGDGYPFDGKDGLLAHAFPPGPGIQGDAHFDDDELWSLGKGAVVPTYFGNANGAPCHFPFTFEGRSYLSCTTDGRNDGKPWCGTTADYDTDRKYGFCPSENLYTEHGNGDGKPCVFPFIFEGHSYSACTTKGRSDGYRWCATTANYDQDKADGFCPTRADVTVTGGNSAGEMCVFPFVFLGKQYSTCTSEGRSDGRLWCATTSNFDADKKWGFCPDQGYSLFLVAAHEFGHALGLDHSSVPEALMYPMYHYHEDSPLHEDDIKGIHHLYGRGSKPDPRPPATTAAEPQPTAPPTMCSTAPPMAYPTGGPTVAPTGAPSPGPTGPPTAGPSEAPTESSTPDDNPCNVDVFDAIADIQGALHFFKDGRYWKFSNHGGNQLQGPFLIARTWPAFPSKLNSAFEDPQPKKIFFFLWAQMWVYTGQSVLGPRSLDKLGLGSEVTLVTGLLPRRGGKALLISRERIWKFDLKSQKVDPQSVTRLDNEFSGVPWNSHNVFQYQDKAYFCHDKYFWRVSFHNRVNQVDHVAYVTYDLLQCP
Quick rule for you: IC50 under 70 nM gets 1, anything else gets 0.

smiles=COc1ccc(-c2cc(-c3ccc(NS(=O)(=O)c4ccc(C)cc4)cc3)nn2-c2nc(Nc3ccc(O)cc3)nc(Nc3ccc(O)cc3)n2)cc1 test_system="Matrix metalloproteinase-9 (Rattus norvegicus, UniProt P50282)" category_label=1
smiles=COc1ccc(-c2cc(-c3ccc(NS(=O)(=O)c4ccc(C)cc4)cc3)nn2-c2nc(Nc3ccccc3)nc(Nc3ccccc3)n2)cc1 test_system="Matrix metalloproteinase-9 (Rattus norvegicus, UniProt P50282)" category_label=0
smiles=COc1ccc(-c2cc(-c3ccc(NS(=O)(=O)c4ccc(C)cc4)cc3)nn2-c2nc(N3CCNCC3)nc(N3CCNCC3)n2)cc1 test_system="Matrix metalloproteinase-9 (Rattus norvegicus, UniProt P50282)" category_label=1
smiles=COc1ccc(-c2cc(-c3ccc(NS(=O)(=O)c4ccc(C)cc4)cc3)nn2-c2nc(Nc3ccccc3C)nc(Nc3ccccc3C)n2)cc1 test_system="Matrix metalloproteinase-9 (Rattus norvegicus, UniProt P50282)" category_label=1

These entries and their values trace back to BindingDB's records for doi:10.1111/cbdd.12807.
